Species on record: Rattus norvegicus
assay_summary: DrugMatrix - Regimen: Daily Repeat
Format: toxicity, organism-based, Sprague-Dawley
Design: regimen Daily Repeat, gender Male, age 6-8 weeks
recorded_conditions: in vivo, po, 0 mg/kg, 120 h, tissue Plasma, route oral GAVAGE, dose level Control, time 5 day, vehicle 100 % WATER
Measured LIPASE, listed per entry for reference.
Answer format: numeric, u/L implied, no suffix.

C[C@@H]1C[C@@H]([C@H](O)CC2CC(=O)NC(=O)C2)C(=O)[C@@H](C)C1 [CYCLOHEXIMIDE]
9.17
Nc1ccn([C@@H]2CS[C@H](CO)O2)c(=O)n1
9.5
CC(C)NCC(O)COc1cccc2ccccc12 (stereo not given)
10.17
C[N+](C)(C)CCO.[Cl-] [CHOLINE CHLORIDE]
10.17
COc1cc2ncnc(Nc3ccc(F)c(Cl)c3)c2cc1OCCCN1CCOCC1
4.83

Entry under review: CC(C)C[C@H](NC(=O)[C@@H](O)[C@H](N)Cc1ccccc1)C(=O)O . Reported LIPASE?
10.17

Using the record for Cc1ncc([N+](=O)[O-])n1CCO , report its LIPASE.
10.5

Which LIPASE reading was recorded for the molecule CC(C)(C)c1ccc(C(=O)CCCN2CCC(OC(c3ccccc3)c3ccccc3)CC2)cc1 ?
9.83

What value of measured LIPASE is listed for ClC(Cl)Cl [CHLOROFORM] ?
10.5

Fill blank: measured LIPASE of the molecule COC(=O)C1=C(C)NC(C)=C(C(=O)OCC(C)C)C1c1ccccc1[N+](=O)[O-] (stereo not given) is ____.
9

----------
List of CHLORIDE values.
Species: Rattus norvegicus
assay_summary: DrugMatrix - Regimen: Daily Repeat
Format: toxicity, organism-based, Sprague-Dawley
Design: regimen Daily Repeat, gender Male, age 6-8 weeks
recorded_conditions: in vivo, iv, 0 mg/kg, 120 h, tissue Plasma, dose level Control, time 5 day, vehicle 100 % SALINE
Answer with the figure and its unit, nothing else.

Some molecules with recorded CHLORIDE:
CCc1c2c(nc3ccc(OC(=O)N4CCC(N5CCCCC5)CC4)cc13)-c1cc3c(c(=O)n1C2)COC(=O)[C@]3(O)CC
96.33 MEQ/L
CC(=O)N[C@@H]1[C@H](Oc2c3cc4cc2Oc2ccc(cc2Cl)[C@@H](O[C@@H]2O[C@@H](CO)[C@@H](O)[C@H](O)[C@@H]2NC(C)=O)[C@@H]2NC(=O)[C@H](NC(=O)[C@@H]4NC(=O)[C@H]4NC(=O)[C@@H](Cc5ccc(c(Cl)c5)O3)NC(=O)[C@H](N)c3ccc(O)c(c3)Oc3cc(O)cc4c3)c3ccc(O)c(c3)-c3c(O[C@H]4O[C@H](CO)[C@@H](O)[C@@H](O)[C@@H]4O)cc(O)cc3[C@@H](C(=O)O)NC2=O)O[C@@H](CO)[C@@H](O)[C@@H]1O
103 MEQ/L
CCC1=C[C@@H]2CN(C1)Cc1c([nH]c3ccccc13)[C@@](C(=O)OC)(c1cc3c(cc1OC)N(C)[C@H]1[C@@](O)(C(=O)OC)[C@H](OC(C)=O)[C@]4(CC)C=CCN5CC[C@]31[C@@H]54)C2
99.5 MEQ/L

Please examine the following record next.
Recorded CHLORIDE for CC[C@]1(O)C[C@@H]2CN(CCc3c([nH]c4ccccc34)[C@@](C(=O)OC)(c3cc4c(cc3OC)N(C)[C@H]3[C@@](O)(C(=O)OC)[C@H](OC(C)=O)[C@]5(CC)C=CCN6CC[C@]43[C@@H]65)C2)C1 , please?
100.5 MEQ/L

----------
# ALBUMIN per record follows
Species: Rattus norvegicus
assay_summary: DrugMatrix - Regimen: Daily Repeat
Format: toxicity, organism-based, Sprague-Dawley
Set-up: regimen Daily Repeat, gender Male, age 6-8 weeks
recorded_conditions: in vivo, iv, 0 mg/kg, 72 h, tissue Plasma, dose level Control, time 3 day, vehicle 100 % SALINE
Unit G/DL implied. Number only.

CC(=O)N[C@@H]1[C@H](Oc2c3cc4cc2Oc2ccc(cc2Cl)[C@@H](O[C@@H]2O[C@@H](CO)[C@@H](O)[C@H](O)[C@@H]2NC(C)=O)[C@@H]2NC(=O)[C@H](NC(=O)[C@@H]4NC(=O)[C@H]4NC(=O)[C@@H](Cc5ccc(c(Cl)c5)O3)NC(=O)[C@H](N)c3ccc(O)c(c3)Oc3cc(O)cc4c3)c3ccc(O)c(c3)-c3c(O[C@H]4O[C@H](CO)[C@@H](O)[C@@H](O)[C@@H]4O)cc(O)cc3[C@@H](C(=O)O)NC2=O)O[C@@H](CO)[C@@H](O)[C@@H]1O
4.37
CCc1c2c(nc3ccc(OC(=O)N4CCC(N5CCCCC5)CC4)cc13)-c1cc3c(c(=O)n1C2)COC(=O)[C@]3(O)CC [IRINOTECAN]
4.27

Endpoint output: ALBUMIN of CCC1=C[C@@H]2CN(C1)Cc1c([nH]c3ccccc13)[C@@](C(=O)OC)(c1cc3c(cc1OC)N(C)[C@H]1[C@@](O)(C(=O)OC)[C@H](OC(C)=O)[C@]4(CC)C=CCN5CC[C@]31[C@@H]54)C2 [VINORELBINE] . Value?
4.27

Dear colleague, I am looking for the recorded ALBUMIN of the following molecule: CC[C@]1(O)C[C@@H]2CN(CCc3c([nH]c4ccccc34)[C@@](C(=O)OC)(c3cc4c(cc3OC)N(C)[C@H]3[C@@](O)(C(=O)OC)[C@H](OC(C)=O)[C@]5(CC)C=CCN6CC[C@]43[C@@H]65)C2)C1 [VINBLASTINE]
4.22

----------
Species on record: Rattus norvegicus
assay_summary: DrugMatrix - Regimen: Daily Repeat
Format: toxicity, organism-based, Sprague-Dawley
Design: regimen Daily Repeat, gender Male, age 6-8 weeks
recorded_conditions: in vivo, po, 0 mg/kg, 72 h, tissue Plasma, route oral GAVAGE, dose level Control, time 3 day, […]
# note: boundary value 0.2 mg/dL maps to class 0; CREATININE below it maps to class 1

Worked cases, answers included:
CC(C)Cc1ccc(C(C)C(=O)O)cc1 (stereo unspecified)
class 1
Cc1cccc(Nc2ccncc2S(=O)(=O)NC(=O)NC(C)C)c1 [TORSEMIDE]
class 1
C[C@H]1O[C@@H](O[C@H]2[C@@H](O)C[C@H](O[C@H]3[C@@H](O)C[C@H](O[C@H]4CC[C@@]5(C)[C@H](CC[C@@H]6[C@@H]5CC[C@]5(C)[C@@H](C7=CC(=O)OC7)CC[C@]65O)C4)O[C@@H]3C)O[C@@H]2C)C[C@H](O)[C@@H]1O
class 1

Does this compound meet the criterion CREATININE < 0.2 mg/dL? CCOC(=O)C(C)(C)Oc1ccc(Cl)cc1 [CLOFIBRATE]
class 1

is_below(CREATININE, 0.2 mg/dL) for CC(=O)Nc1ccc(O)cc1 ?
class 1

hey, is CREATININE for S=C=Nc1cccc2ccccc12 [1-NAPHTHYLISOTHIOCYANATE] lower than 0.2 mg/dL or not?
class 1

For this compound, is CREATININE lower than 0.2 mg/dL? C[C@]12CC[C@@H]3c4ccc(O)cc4CC[C@H]3[C@@H]1CC[C@@H]2O
class 1

is_below(CREATININE, 0.2 mg/dL) for CCCCCCCCc1ccc(O)cc1 ?
class 1

Strictly below 0.2 mg/dL in CREATININE? CC(=O)Nc1cccc(O)c1
class 0

Does this compound meet the criterion CREATININE < 0.2 mg/dL? CC(C)(Oc1ccc(C2CCCc3ccccc32)cc1)C(=O)O (stereo unspecified)
class 0

Please let me know if COCCOC(=O)C1=C(C)NC(C)=C(C(=O)OC(C)C)C1c1cccc([N+](=O)[O-])c1 (stereo unspecified) shows CREATININE below 0.2 mg/dL.
class 1

----------
Species on record: Rattus norvegicus
assay_summary: DrugMatrix - Regimen: Daily Repeat
Type: toxicity, organism-based, Sprague-Dawley
Set-up: regimen Daily Repeat, gender Male, age 6-8 weeks
recorded_conditions: in vivo, po, 1500 mg/kg, 120 h, tissue Plasma, route oral GAVAGE, dose level High, time 5 day, vehicle .5 % CMC
Some compounds, each annotated with its measured ALBUMIN.
Just the number please, in G/DL, no unit attached.

NC(=O)c1cnccn1 [PYRAZINAMIDE]
4.53
Cc1ccc(S(=O)(=O)NC(=O)NN2CC3CCCC3C2)cc1 (stereo not drawn) [GLICLAZIDE]
4.17

We next turn to a different compound, shown below.
So what does the record say about ALBUMIN for O=C(N[C@H](CO)[C@H](O)c1ccc([N+](=O)[O-])cc1)C(Cl)Cl [CHLORAMPHENICOL] ?
4.13

----------
Species: Rattus norvegicus
assay_summary: DrugMatrix - Regimen: Daily Repeat
Type: toxicity, organism-based, Sprague-Dawley
Set-up: regimen Daily Repeat, gender Male, age 6-8 weeks
recorded_conditions: in vivo, po, 0 mg/kg, 72 h, tissue Plasma, route oral GAVAGE, dose level Control, time 3 day, vehicle .5 % CMC
Output t for records whose TOTAL BILIRUBIN is lower than 0.2 mg/dL, f for records at or above 0.2 mg/dL.

Is TOTAL BILIRUBIN of CO[C@H]1/C=C/O[C@@]2(C)Oc3c(C)c(O)c4c(c3C2=O)C2=NC3(CCN(CC(C)C)CC3)NC2=C(NC(=O)/C(C)=C\C=C\[C@H](C)[C@H](O)[C@@H](C)[C@@H](O)[C@@H](C)[C@H](OC(C)=O)[C@@H]1C)C4=O strictly below 0.2 mg/dL?
t

Please state whether TOTAL BILIRUBIN is below 0.2 mg/dL for CC(C)[C@H]1CC[C@H](C(=O)N[C@H](Cc2ccccc2)C(=O)O)CC1 [NATEGLINIDE]
f

Does the reported TOTAL BILIRUBIN of the following compound sit strictly below 0.2 mg/dL? CNC(=C[N+](=O)[O-])NCCSCc1ccc(CN(C)C)o1
t
